What IC50 was measured for each of the following?
Biological target: HIV-1 pNL4-3 integrase (Human immunodeficiency virus type 1 group M subtype B (isolate NY5) (HIV-1))
Assay: Determination of enzyme (HIV integrase) inhibitory activity
Details: calculated from inhibition rate (fluorescence)
Hey, just the number and the unit after it is fine.

> print(dat)
                                   compound  recorded.measurement
1  CCN1C(=O)c2c(O)c(=O)c(-c3ncc(Cc4ccc(F)cc4)s3)cn2C[C@H]1[C@H](C)OC [Example 333]                7.5 nM
2  CNC(=O)C1(C)CN(C(C)C)C(=O)c2c(O)c(=O)c(-c3ncc(Cc4ccc(F)cc4F)s3)cn21 (stereo not drawn) [Example 29]                 10 nM
3  CC(C)N1C(=O)c2c(O)c(=O)c(-c3nnc(Cc4ccc(F)cc4F)s3)cn2CC1CC(=O)O (stereo not drawn) [Example 74]                5.7 nM
4  CCOCCOC[C@H]1CN(C(C)C)C(=O)c2c(O)c(=O)c(-c3nnc(Cc4ccc(F)cc4F)s3)cn21 [Example 143]                6.9 nM

Give IC50 for each listed item.
1. CCNC(=O)[C@@]1(C)CN(CC)C(=O)c2c(O)c(=O)c(-c3nnc(Cc4ccc(F)cc4)s3)cn21 [Example 201]
2. CCC(C)N1C(=O)c2c(O)c(=O)c(-c3nnc(Cc4ccc(F)cc4F)s3)cn2C[C@H]1COC (stereo partly drawn) [Example 146]

1. 9.5 nM
2. 5.9 nM

Give IC50 for each listed item.
1. CN(C)C(=O)[C@@]1(C)CN(C2CC2)C(=O)c2c(O)c(=O)c(-c3nnc(Cc4ccc(F)cc4)s3)cn21 [Example 178]
2. CC(C)N1CC(C)(C(=O)O)n2cc(-c3ncc(Cc4ccc(F)cc4F)s3)c(=O)c(O)c2C1=O (stereo not drawn) [Example 24]
3. COC[C@@H]1CN(C(C)C)C(=O)c2c(O)c(=O)c(-c3nnc(Cc4ccc(F)cc4)s3)cn21 [Example 88]
4. CC(C)N1C[C@@H](C(C)(C)C)n2cc(-c3nnc(Cc4ccc(F)cc4)s3)c(=O)c(O)c2C1=O [Example 192]
5. CCN1C(=O)c2c(O)c(=O)c(-c3nnc(Cc4ccc(F)cc4)s3)cn2[C@H](COC)[C@H]1C [Example 289]
6. CC(C)N1C(=O)c2c(O)c(=O)c(-c3nnc(Cc4ccc(F)cc4F)s3)cn2C[C@@]1(C)C(=O)N(C)C [Example 321]
7. CNC(=O)[C@@]1(C)CN(C(C)C)C(=O)c2c(O)c(=O)c(-c3nnc(Cc4ccc(F)cc4F)s3)cn21 [Example 191]
8. COC[C@H]1Cn2cc(-c3nnc(Cc4ccc(F)cc4F)s3)c(=O)c(O)c2C(=O)N1C(C)C [Example 96]

20 nM
23 nM
8.7 nM
15 nM
10 nM
7 nM
12 nM
6.7 nM

Given item CCN1C(=O)c2c(O)c(=O)c(-c3nnc(Cc4ccc(F)cc4)s3)cn2C[C@@H]1[C@@H](C)OC [Example 395] , the value recorded as its IC50 is 10 nM

###

Biological target: HIV-1 pNL4-3 integrase (Human immunodeficiency virus type 1 group M subtype B (isolate NY5) (HIV-1))
Assay: Determination of enzyme (HIV integrase) inhibitory activity
Settings: calculated from inhibition rate (fluorescence)
measured.quantity: pIC50
Give bare numbers, as −log10 of the molar value.

> print(dat)
                                   compound  recorded.measurement
1  COCCOC[C@H]1CN(CC(C)C)C(=O)c2c(O)c(=O)c(-c3nnc(Cc4ccc(F)cc4F)s3)cn21 [Example 45]                  7.96
2  COC[C@H]1CN(C(C)C)C(=O)c2c(O)c(=O)c(-c3nnc(Cc4ccc(F)cc4C)s3)cn21 [Example 231]                  7.96
3  COCCOC[C@@H]1CN(C(C)C)C(=O)c2c(O)c(=O)c(-c3nnc(Cc4ccc(F)cc4F)s3)cn21 [Example 46]                  7.96
4  COC[C@H]1CN([C@@H](C)C2CC2)C(=O)c2c(O)c(=O)c(-c3nnc(Cc4ccc(F)cc4)s3)cn21 [Example 316]                  7.92
5  COC[C@@H]1Cn2cc(-c3ncc(Cc4ccc(F)cc4)s3)c(=O)c(O)c2C(=O)N1CC1CC1 [Example 217]                  8.28
6  COC[C@H]1CN(C(C)C)C(=O)c2c(O)c(=O)c(-c3nnc(Cc4ccc(F)c(Cl)c4)s3)cn21 [Example 243]                  8.12

Given item CCC(C)N1C(=O)c2c(O)c(=O)c(-c3nnc(Cc4ccc(F)cc4F)s3)cn2C[C@H]1COC (stereo partly shown) [Example 145] , the value recorded as its pIC50 is 8.25

###

Target: HIV-1 pNL4-3 integrase (Human immunodeficiency virus type 1 group M subtype B (isolate NY5) (HIV-1))
Test: Determination of enzyme (HIV integrase) inhibitory activity
Settings: calculated from inhibition rate (fluorescence)
What pIC50 was measured for each of the following?
One number for each entry, as −log10 of the molar value.

> print(dat)
                                    molecule  recorded.measurement
 1  COC[C@@H]1[C@H](C)N(C(C)C)C(=O)c2c(O)c(=O)c(-c3nnc(Cc4ccc(F)cc4)s3)cn21 [Example 356]                  8.05
 2  CC(C)N1C[C@](C)(C(=O)N2CCCC2)n2cc(-c3nnc(Cc4ccc(F)cc4)s3)c(=O)c(O)c2C1=O [Example 179]                  7.72
 3  COC[C@@H]1[C@@H](C)n2cc(-c3nnc(Cc4ccc(F)cc4)s3)c(=O)c(O)c2C(=O)N1C(C)C [Example 304]                  8.04
 4  COC[C@H]1CN(C(C)C)C(=O)c2c(O)c(=O)c(-c3nnc(Cc4ccc(F)cc4Br)s3)cn21 [Example 230]                  7.16
 5  CC(C)N1C(=O)c2c(O)c(=O)c(-c3nnc(Cc4ccc(F)cc4F)s3)cn2CC1CCO (centres unmarked) [Example 90]                  8.17
 6  COC[C@@H]1Cn2cc(-c3nnc(CCc4ccc(F)cc4F)s3)c(=O)c(O)c2C(=O)N1C(C)C [Example 317]                  8.01
 7  CC(C)N1CC(C(=O)O)n2cc(-c3ncc(Cc4ccc(F)cc4F)s3)c(=O)c(O)c2C1=O (centres unmarked) [Example 23]                  7.92
 8  COC1CN(C(=O)CC2CN(C(C)C)C(=O)c3c(O)c(=O)c(-c4ncc(Cc5ccc(F)cc5F)s4)cn32)C1 (centres unmarked) [Example 272]                  8.05
 9  CCC(CC)N1C[C@H](COC)n2cc(-c3nnc(Cc4ccc(F)cc4)s3)c(=O)c(O)c2C1=O [Example 337]                  7.77
10  CC(C)N1C[C@](C)(C(=O)N2CCC(=O)C2)n2cc(-c3ncc(Cc4ccc(F)cc4)s3)c(=O)c(O)c2C1=O [Example 290]                  7.85

Give pIC50 for each listed item.
1. CO[C@@H]1CCN(C(=O)[C@@]2(C)CN(C(C)C)C(=O)c3c(O)c(=O)c(-c4ncc(Cc5ccc(F)cc5)s4)cn32)C1 [Example 213]
2. CC(C)N1C(=O)c2c(O)c(=O)c(-c3nnc(Cc4ccc(F)cc4F)s3)cn2CC1C#N (centres unmarked) [Example 64]
3. CCN1C(=O)c2c(O)c(=O)c(-c3ncc(Cc4ccc(F)cc4)s3)cn2C[C@@]1(C)C(=O)N(C)C [Example 253]

1: 7.82; 2: 8.21; 3: 8.11

Give pIC50 for each listed item.
1. COC[C@@H]1CN(C(C)C)C(=O)c2c(O)c(=O)c(-c3nnc(Cc4ccc(F)cc4F)s3)cn21 [Example 87]
2. CCNC(=O)[C@@]1(C)CN(C2CC2)C(=O)c2c(O)c(=O)c(-c3nnc(Cc4ccc(F)cc4)s3)cn21 [Example 187]
3. COCCN(C)C(=O)[C@@]1(C)CN(C(C)C)C(=O)c2c(O)c(=O)c(-c3nnc(Cc4ccc(F)cc4)s3)cn21 [Example 202]
4. CNC(=O)[C@]1(C)CN(C(C)C)C(=O)c2c(O)c(=O)c(-c3ncc(Cc4ccc(F)cc4)s3)cn21 [Example 227]
5. COC[C@H]1CN(C(C)C)C(=O)c2c(O)c(=O)c(-c3nnc(Cc4cc(OC)c(F)cc4F)s3)cn21 [Example 277]
6. CC(C)N1C(=O)c2c(O)c(=O)c(-c3nnc(Cc4ccc(F)cc4F)s3)cn2C[C@H]1C [Example 156]
7. COC[C@H]1CN([C@@H](C)C(C)C)C(=O)c2c(O)c(=O)c(-c3nnc(Cc4ccc(F)cc4F)s3)cn21 [Example 136]

1: 8.11; 2: 7.72; 3: 7.89; 4: 7.89; 5: 7.92; 6: 8.34; 7: 7.96

Give pIC50 for each listed item.
1. CCN1C(=O)c2c(O)c(=O)c(-c3ncc(Cc4ccc(F)cc4)s3)cn2C[C@]1(C)C(=O)NC [Example 292]
2. COCC1(COC)Cn2cc(-c3nnc(Cc4ccc(F)cc4)s3)c(=O)c(O)c2C(=O)N1C(C)C [Example 320]
3. COC[C@H]1CN(C(C)C)C(=O)c2c(O)c(=O)c(-c3nnc(Cc4c(F)cc(F)cc4OC)s3)cn21 [Example 220]
4. CC(C)N1C[C@H](Cn2cnnn2)n2cc(-c3nnc(Cc4ccc(F)cc4)s3)c(=O)c(O)c2C1=O [Example 359]
5. CC(C)N1C(=O)c2c(O)c(=O)c(-c3nnc(Cc4ccc(F)cc4F)s3)cn2CC12CCOCC2 [Example 100]
6. CC(C)N1C(=O)c2c(O)c(=O)c(-c3nnc(Cc4ccc(F)cc4F)s3)cn2C[C@H]1CN(C)S(C)(=O)=O [Example 154]

1. 8.14
2. 8.03
3. 8.17
4. 8.32
5. 8.09
6. 8.14
